Origin of values: the RNAGym collection of RNA variant scans (doi:10.1126/science.aae0568)

B1: tRNA (parent)
chain: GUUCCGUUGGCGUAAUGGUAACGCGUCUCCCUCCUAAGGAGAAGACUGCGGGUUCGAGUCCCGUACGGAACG

Variants of: B1
assay.info: yeast fitness relative to wild type (ratio to wild type); higher = fitter; tRNA-Arg(CCU), competitive growth, 37 C, YPD
Variants at the floor of the assay were thinned out.
Let's look at some variants and their measured yeast fitness.

Reference set, count: 5
variant.code: U32G A36U U59C
yeast fitness: ≤ 0.5

variant.code: C30G G48A U53C
yeast fitness: ≤ 0.5

variant.code: A21C C22G A69C
yeast fitness: ≤ 0.5

variant.code: G12C U32G C33G G67C
yeast fitness: ≤ 0.5

variant.code: C5U U7A C62A
yeast fitness: ≤ 0.5

Query block: Output measured yeast fitness for this item: C5G C33A A65U
Result block: ≤ 0.5
